Tested on: ISC-enriched organoids
Assay: Primary screen, 384-well 2.5-D organoid differentiation (ENR+CD, 6 days): basal lysozyme secretion (LYZ.NS)
Assay type: cell-based, murine
Conditions: Dose 0.08 uM; primary screen, vs plate median
Quantity Name: Dose.FC.LYZ.NS (log 2 fold change)
Enter a number only.

// known answers, use as guide
Compound | Dose.FC.LYZ.NS (log 2 fold change)
CN1CCC(CNc2ccc3ncc(-c4cccc(OC(F)(F)F)c4)n3n2)CC1 [SGI-1776free base] | 0.116
CC(C)(C)c1cc(NC(=O)Nc2ccc(-c3cn4c(n3)sc3cc(OCCN5CCOCC5)ccc34)cc2)no1 [Quizartinib (AC220)] | 0.096
COc1cc2c(N3CCN(C(=O)Nc4ccc(OC(C)C)cc4)CC3)ncnc2cc1OCCCN1CCCCC1 [Tandutinib (MLN518)] | 0.095
O=C1NC(=O)C(c2ccccc2[N+](=O)[O-])=C1Nc1ccc(O)c(Cl)c1 [SB415286] | 0.145
O=C(NCc1cccc(O)c1)Nc1nc(-c2ccncc2)cs1 [RKI-1447] | −0.006

Query :: Given CNC(=O)c1ccccc1Nc1nc(Nc2ccc(N3CCOCC3)cc2OC)ncc1Cl [TAE226 (NVP-TAE226)] , state its recorded Dose.FC.LYZ.NS (log 2 fold change).
Result :: −0.256

Query :: Given the entry O=C(Nc1ccncc1)c1cc([N+](=O)[O-])ccc1Cl [T0070907] , report its measured Dose.FC.LYZ.NS (log 2 fold change).
Result :: 0.010
